Attribution: ChEMBL document CHEMBL5257147

Test system: BaF3
Assay: Cytotoxicity against mouse BaF3 cells expressing EGFR L858R/T790M/C797S mutant assessed as reduction in cell viability incubated for 96 hrs by CellTiter-Glo assay
Format: functional, cell-based
Conditions: BaF3, 96 h
Experimental endpoint: pEC50
Give bare numbers, as −log10 of the molar value.

Q. GET /values?readout=pEC50&item= COc1cc(N2CCC(N(C)C)CC2)ccc1Nc1ncc(C(=O)Oc2ccccc2)c(-c2c[nH]c3ccccc23)n1
A. 6.33

----------
Target: Epidermal growth factor receptor (Homo sapiens, UniProt P00533, C797S/L858R/T790M)
Sequence (P00533 25-1210 T790M/C797S/L858R limits assumed): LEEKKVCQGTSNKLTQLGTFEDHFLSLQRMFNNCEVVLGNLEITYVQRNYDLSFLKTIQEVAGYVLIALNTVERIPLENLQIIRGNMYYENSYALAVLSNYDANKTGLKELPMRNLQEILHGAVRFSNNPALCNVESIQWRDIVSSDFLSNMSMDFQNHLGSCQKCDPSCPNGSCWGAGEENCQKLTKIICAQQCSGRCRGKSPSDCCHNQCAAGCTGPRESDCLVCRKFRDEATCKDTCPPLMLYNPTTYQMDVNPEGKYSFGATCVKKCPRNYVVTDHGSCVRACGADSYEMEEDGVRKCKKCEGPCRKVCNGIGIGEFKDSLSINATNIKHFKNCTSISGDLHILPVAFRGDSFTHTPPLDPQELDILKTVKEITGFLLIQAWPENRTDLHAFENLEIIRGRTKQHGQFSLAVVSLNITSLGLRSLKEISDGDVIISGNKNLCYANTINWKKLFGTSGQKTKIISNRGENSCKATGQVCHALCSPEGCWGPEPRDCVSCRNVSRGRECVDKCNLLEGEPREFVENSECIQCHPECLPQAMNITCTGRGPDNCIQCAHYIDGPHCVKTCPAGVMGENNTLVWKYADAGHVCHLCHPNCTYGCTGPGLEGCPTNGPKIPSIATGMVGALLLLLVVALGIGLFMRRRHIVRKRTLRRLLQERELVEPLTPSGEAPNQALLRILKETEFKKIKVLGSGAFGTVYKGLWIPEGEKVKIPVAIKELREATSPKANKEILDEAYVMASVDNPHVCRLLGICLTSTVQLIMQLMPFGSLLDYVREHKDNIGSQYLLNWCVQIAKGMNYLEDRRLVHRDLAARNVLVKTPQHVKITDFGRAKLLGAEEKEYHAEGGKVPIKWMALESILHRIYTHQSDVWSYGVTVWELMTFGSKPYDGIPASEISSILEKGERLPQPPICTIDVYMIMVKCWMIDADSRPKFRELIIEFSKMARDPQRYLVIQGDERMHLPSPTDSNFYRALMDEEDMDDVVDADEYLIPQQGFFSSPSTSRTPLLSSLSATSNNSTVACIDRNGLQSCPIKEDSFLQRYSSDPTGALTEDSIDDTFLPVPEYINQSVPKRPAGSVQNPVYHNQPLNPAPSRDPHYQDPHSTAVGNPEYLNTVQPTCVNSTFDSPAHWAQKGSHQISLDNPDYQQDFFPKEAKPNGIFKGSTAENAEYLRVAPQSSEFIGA
Assay: Inhibition of EGFR L858R/T790M/C797S mutant (unknown origin) using TK-substrate preincubated with enzyme for 30 mins followed by substrate and ATP addition for 10 mins by HTRF assay
Assignment: determine reported log10(IC50) for the given compounds.
// do not treat as linear: log10 of IC50, unit nM

Use these answered entries as a reference point.
> print(dat)
                                   compound                               measured.on  recorded.number
1  COc1cc(N2CCC(N(C)C)CC2)ccc1Nc1ncc(C(=O)OC(C)C)c(-c2c[nH]c3ccccc23)n1  Epidermal growth factor receptor (Homo sapiens, UniProt P00533, C797S/L858R/T790M)             1.18
2  COc1cc(N2CCC(N(C)C)CC2)ccc1Nc1ncc(C(=O)Oc2ccccc2)c(-c2c[nH]c3ccccc23)n1  Epidermal growth factor receptor (Homo sapiens, UniProt P00533, C797S/L858R/T790M)            -0.19
3  C=CC(=O)Nc1cc(Nc2ncc(C(=O)OC(C)C)c(-c3cn(C)c4ccccc34)n2)c(OC)cc1N(C)CCN(C)C [MOBOCERTINIB]  Epidermal growth factor receptor (Homo sapiens, UniProt P00533, C797S/L858R/T790M)             2.56
4  COc1cc(N2CCN(C)CC2)ccc1Nc1ncc(C(=O)Oc2ccccc2)c(-c2cn(C)c3ccccc23)n1  Epidermal growth factor receptor (Homo sapiens, UniProt P00533, C797S/L858R/T790M)             0.94

For each of the compounds below, note its log10(IC50).
1. COc1cc(N2CCC(N(C)C)CC2)ccc1Nc1ncc(C(=O)OC(C)C)c(-c2cn(C)c3ccccc23)n1
2. COc1cc(N2CCC(N(C)C)CC2)ccc1Nc1ncc(C(=O)OC(C)C)c(-c2cn(C(C)=O)c3ccccc23)n1
3. COc1cc(N2CCC(N)CC2)ccc1Nc1ncc(C(=O)OC(C)C)c(-c2cn(C)c3ccccc23)n1

A.
1. 1.28
2. 1.89
3. 1.08

----------
Biological target: Epidermal growth factor receptor (Homo sapiens, UniProt P00533, L858R)
Sequence (P00533 25-1210 L858R limits assumed): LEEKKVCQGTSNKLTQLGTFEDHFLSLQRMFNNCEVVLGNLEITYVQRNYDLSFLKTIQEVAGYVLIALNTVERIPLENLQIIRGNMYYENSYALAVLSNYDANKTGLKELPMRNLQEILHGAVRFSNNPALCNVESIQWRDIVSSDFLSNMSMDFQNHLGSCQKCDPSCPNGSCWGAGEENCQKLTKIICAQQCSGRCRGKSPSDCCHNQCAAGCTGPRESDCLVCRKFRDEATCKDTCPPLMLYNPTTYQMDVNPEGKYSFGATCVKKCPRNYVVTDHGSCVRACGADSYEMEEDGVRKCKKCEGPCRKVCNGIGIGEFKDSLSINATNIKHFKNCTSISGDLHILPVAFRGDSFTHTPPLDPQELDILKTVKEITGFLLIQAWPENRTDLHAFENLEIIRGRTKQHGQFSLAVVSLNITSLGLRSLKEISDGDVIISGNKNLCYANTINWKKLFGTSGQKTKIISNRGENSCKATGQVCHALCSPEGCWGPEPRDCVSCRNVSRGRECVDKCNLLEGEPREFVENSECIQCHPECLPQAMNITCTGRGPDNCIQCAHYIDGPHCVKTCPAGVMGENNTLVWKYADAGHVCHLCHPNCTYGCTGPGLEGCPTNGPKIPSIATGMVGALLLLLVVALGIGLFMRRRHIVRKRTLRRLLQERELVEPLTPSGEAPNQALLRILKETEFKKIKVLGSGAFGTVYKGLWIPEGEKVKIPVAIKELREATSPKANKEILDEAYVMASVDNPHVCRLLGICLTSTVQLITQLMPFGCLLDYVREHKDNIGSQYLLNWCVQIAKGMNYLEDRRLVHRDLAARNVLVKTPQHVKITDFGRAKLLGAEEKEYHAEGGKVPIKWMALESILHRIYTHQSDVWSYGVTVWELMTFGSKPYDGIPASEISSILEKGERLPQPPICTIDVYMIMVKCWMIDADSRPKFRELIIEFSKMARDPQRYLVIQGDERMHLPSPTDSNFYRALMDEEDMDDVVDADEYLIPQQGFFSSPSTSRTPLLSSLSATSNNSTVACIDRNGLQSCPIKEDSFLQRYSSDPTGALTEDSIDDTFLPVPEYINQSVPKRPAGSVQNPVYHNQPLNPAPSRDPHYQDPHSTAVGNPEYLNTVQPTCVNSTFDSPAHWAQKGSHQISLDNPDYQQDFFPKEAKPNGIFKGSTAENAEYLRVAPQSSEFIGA
Assay: Inhibition of EGFR L858R mutant (unknown origin) using TK-substrate preincubated with enzyme for 30 mins followed by substrate and ATP addition for 15 mins by HTRF assay
Experimental endpoint: pIC50
One number for each entry, as −log10 of the molar value.

Below, each entry is followed by its recorded pIC50 result.
> print(dat)
                                   molecule                               measured.on  recorded.number
1  C=CC(=O)Nc1cc(Nc2ncc(C(=O)OC(C)C)c(-c3cn(C)c4ccccc34)n2)c(OC)cc1N(C)CCN(C)C  Epidermal growth factor receptor (Homo sapiens, UniProt P00533, L858R)            11.00
2  CCOC(=O)c1cnc(Nc2ccc(N3CCN(C)CC3)cc2OC)nc1-c1cn(C)c2ccccc12  Epidermal growth factor receptor (Homo sapiens, UniProt P00533, L858R)             9.17
3  COC(=O)c1cnc(Nc2ccc(N3CCN(C)CC3)cc2OC)nc1-c1cn(C)c2ccccc12  Epidermal growth factor receptor (Homo sapiens, UniProt P00533, L858R)             8.47

Now, please, on to the next compound.
Q. Please report the recorded pIC50 for COc1cc(N2CCN(C)CC2)ccc1Nc1nccc(-c2cn(C)c3ccccc23)n1 .
A. 8.27
